# system-tested: Eukaryotic translation initiation factor 4E [28-217] (Homo sapiens)
# Construct: 28-217
# Sequence (P06730 28-217): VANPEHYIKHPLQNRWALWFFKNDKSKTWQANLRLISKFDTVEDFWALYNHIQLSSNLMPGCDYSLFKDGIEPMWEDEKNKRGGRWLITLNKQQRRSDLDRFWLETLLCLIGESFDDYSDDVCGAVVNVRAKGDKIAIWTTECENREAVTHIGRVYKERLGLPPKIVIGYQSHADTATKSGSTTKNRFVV
# measurement-protocol: Human eIF4E/4G2 Binding Assay
pIC50: −log10 of the molar value.
Some compounds, each annotated with its measured pIC50.
measurement-kind: pIC50

- CC(C)Cc1sc(N2CCN(C(=O)c3cccc(F)c3)C(C(=O)O)C2)nc1-c1ccc(Cl)c(Cl)c1 (centres undefined) [US11753403, Compound I-247]: > 6.00
- CC(C)Cc1sc(N(CCC(=O)O)Cc2ccccc2)nc1-c1ccc(-c2ccc(F)cc2)c(Cl)c1 [US11753403, Compound I-104]: > 6.00
- O=C(O)CCN(Cc1ccccc1)c1nc(-c2ccc(Cl)c(Cl)c2)c(CN2CCCCC2)s1 [US11753403, Compound I-90]: < 5.00
- CC(C)Cc1sc(NCC(Cc2cccc(C(=O)NCCN)c2)C(=O)O)nc1-c1ccc(Cl)c(Cl)c1 (centres undefined) [US11753403, Compound I-204]: < 5.00

Source listed as BindingDB's records for patent US11753403.
